Listing of recorded IC50 by entry.
# TEST_TARGET: Neuraminidase (Influenza A virus)
# EXPERIMENT_DESCRIPTION: Inhibition of Influenza A virus (A/Chicken/Shandong/LY/08(H9N2)) neuraminidase using 4-MU-NANA as substrate incubated for 5 mins prior to substrate addition measured after 30 to 60 mins by fluorescence assay
# Parameters: species or system Influenza A virus (A/chicken/Shandong/LY/2008(H9N2))
Quick reminder: number only, in µM, skip the unit.

Field: example entries. Status: answers known.
| STRUCTURE | IC50 [µM] |
| --- | --- |
| CCC(CC)C(=O)Nc1cc(NC(C)=O)c(NC(=O)CCc2ccc(O)c(O)c2)cc1OCC(=O)O | 15.8 |
| CCC(CC)CN(C(=O)/C=C/c1ccc(O)c(O)c1)c1ccc(OCC(=O)O)c(NC(=O)C(CC)CC)c1 | 25.2 |
| CCC(CC)C(=O)Nc1cc(NC(=O)CNC(=O)/C=C/c2ccc(O)c(O)c2)ccc1OCC(=O)O | 9.2 |
| CCC(CC)C(=O)Nc1cc(NC(C)=O)c(N)cc1OCC(=O)O | 46.4 |

Ask | Return IC50 (reported value) for this molecule: CCC(CC)C(=O)Nc1cc(NS(=O)(=O)c2ccc(C)cc2)ccc1OCC(=O)O
Reply | 78.6

----------
Recorded measurements of CC50 at 48 h, one per entry
# EXPERIMENT_DESCRIPTION: Cytotoxicity against chicken embryo fibroblasts infected with Influenza A virus (A/Chicken/Shandong/LY/08(H9N2)) preincubated for 1 hr followed by viral-infection measured after 2 days by MTS assay
# Format: cell-based, Gallus gallus, Fibroblast
Give just the numeric value; µM need not be written.

| STRUCTURE | UNIT_INFO | RESULT_NUMBER |
| --- | --- | --- |
| CCC(CC)C(=O)Nc1cc(N(Cc2ccccc2)C(=O)/C=C/c2ccc(O)c(O)c2)ccc1OCC(=O)O | µM | 78.2 |
| CCC(CC)C(=O)Nc1cc(NC(C)=O)c(NC(=O)CCc2ccc(O)c(O)c2)cc1OCC(=O)O | µM | 47.2 |
| CCC(CC)C(=O)Nc1cc(NC(=O)[C@H](Cc2ccccc2)NC(=O)/C=C/c2ccc(O)c(O)c2)ccc1OCC(=O)O | µM | 68.3 |

Moving on to another compound below.
Ask | Quote CC50 at 48 h reported for CCC(CC)C(=O)Nc1cc(NC(=O)[C@H](CC(C)C)NC(=O)/C=C/c2ccc(O)c(O)c2)ccc1OCC(=O)O please.
Reply | 89.7

----------
# TEST_TARGET: Neuraminidase (Influenza A virus, UniProt B4URF0)
# Sequence (B4URF0 whole entry): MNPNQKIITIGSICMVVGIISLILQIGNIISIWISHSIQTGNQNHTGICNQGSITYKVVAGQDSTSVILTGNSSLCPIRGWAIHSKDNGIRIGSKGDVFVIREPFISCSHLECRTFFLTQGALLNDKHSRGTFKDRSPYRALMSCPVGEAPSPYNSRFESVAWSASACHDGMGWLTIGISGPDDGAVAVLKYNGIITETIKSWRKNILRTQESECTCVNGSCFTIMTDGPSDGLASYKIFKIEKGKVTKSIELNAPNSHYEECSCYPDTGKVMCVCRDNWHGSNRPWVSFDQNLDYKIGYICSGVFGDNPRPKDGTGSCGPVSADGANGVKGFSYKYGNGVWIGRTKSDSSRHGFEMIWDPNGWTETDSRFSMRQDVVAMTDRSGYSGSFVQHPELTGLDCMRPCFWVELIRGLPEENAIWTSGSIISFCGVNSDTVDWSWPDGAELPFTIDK
# EXPERIMENT_DESCRIPTION: Inhibition of influenza A virus A/duck/China/QJ/01(H5N1) neuraminidase using 4-MU-NANA as substrate incubated for 5 mins prior to substrate addition measured after 30 to 60 mins by fluorescence assay
# IC50 listing for each entry below
Enter your answer as a number in µM; do not include the unit.

// worked examples, IC50 included
| STRUCTURE | PROPERTY_MEASURED | RESULT_NUMBER |
| --- | --- | --- |
| CCC(CC)C(=O)Nc1cc(N(Cc2cccs2)C(=O)/C=C/c2ccc(O)c(O)c2)ccc1OCC(=O)O | IC50 | 16.4 |
| CCC(CC)C(=O)Nc1cc(NC(C)=O)c(N)cc1OCC(=O)O | IC50 | 58.5 |
| CCC(CC)C(=O)Nc1cc(NC(C)=O)c(NC(=O)CCc2ccc(O)c(O)c2)cc1OCC(=O)O | IC50 | 42.7 |
| CCC(CC)C(=O)Nc1cc(NC(=O)C(C)C)c(N)cc1OCC(=O)O | IC50 | 61.2 |
| CCC(CC)C(=O)Nc1cc(N(Cc2ccccc2)C(=O)/C=C/c2ccc(O)c(O)c2)ccc1OCC(=O)O | IC50 | 11.4 |

Ask | Name the recorded IC50 of the item CCC(CC)C(=O)Nc1cc(NS(=O)(=O)c2ccc(C)cc2)ccc1OCC(=O)O in your answer.
Reply | 86.7

Ask | Answer with the recorded IC50 for the compound listed here: CCC(CC)C(=O)Nc1cc(NC(=O)[C@H](C)NC(=O)/C=C/c2ccc(O)c(O)c2)ccc1OCC(=O)O
Reply | 16.1

Ask | Report IC50, nothing else, for this compound: CCC(CC)C(=O)Nc1cc(NC(C)=O)c(NC(=N)N)cc1OCC(=O)O
Reply | 75.8

Ask | Return reported IC50. Input compound: CCC(CC)C(=O)Nc1cc(NC(=O)[C@H](CC(C)C)NC(=O)/C=C/c2ccc(O)c(O)c2)ccc1OCC(=O)O
Reply | 14

Ask | Please supply the value of reported IC50 for the item CCC(CC)C(=O)Nc1cc(NC(=O)CNC(=O)/C=C/c2ccc(O)c(O)c2)ccc1OCC(=O)O
Reply | 17.6
